Every entry's value here was drawn from PubChem BioAssay AID1195.

Test system: human maximum recommended daily dose, FDA database
Assay: DSSTox (FDAMDD) FDA Maximum (Recommended) Daily Dose Database
Details: TherapeuticCategory: narcotic analgesic; hits give low values
Text: The Food and Drug Administration (FDA) Center for Drug Evaluation and Research, Office of Pharmaceutical Science, Informatics and Computational Safety Analysis Staff's Maximum Recommended Daily Dose (FDAMDD) database contains values for over 1200 pharmaceuticals listed in Martindale: The Extra Pharmacopoeia (1973, 1983, and 1993) and The Physicians' Desk Reference (1995 and 1999). […]
Item-by-item account of maximum recommended daily dose (mmol/kg-bw/day)
REPORTED PROPERTY: maximum recommended daily dose (mmol/kg-bw/day)

# SAMPLE SMILES, SYSTEM TESTED, NUMERIC RESULT
records = [
    ("COC12CC[C@@]3(C[C@@H]1[C@](C)(O)C(C)(C)C)[C@H]1Cc4ccc(O)c5c4[C@@]3(CCN1CC1CC1)[C@H]2O5", "human maximum recommended daily dose, FDA database", 0.00114),
    ("C[C@H](CN1CCOCC1)C(C(=O)N1CCCC1)(c1ccccc1)c1ccccc1", "human maximum recommended daily dose, FDA database", 0.000848),
    ("CCOC(=O)C1(c2ccccc2)CCN(CCc2ccc(N)cc2)CC1", "human maximum recommended daily dose, FDA database", 0.00945),
    ("CN1CC[C@]23CCCC[C@H]2[C@H]1Cc1ccc(O)cc13", "human maximum recommended daily dose, FDA database", 0.000583),
    ("CC(C)=CCN1CC[C@@]2(C)c3cc(O)ccc3C[C@@H]1[C@@H]2C", "human maximum recommended daily dose, FDA database", 0.00876),
    ("Oc1ccc2c3c1O[C@H]1[C@@H](O)CC[C@@]4(O)[C@@H](C2)N(CC2CCC2)CC[C@]314", "human maximum recommended daily dose, FDA database", 0.0028),
]

###

Tested on: human maximum recommended daily dose, FDA database
Assay: DSSTox (FDAMDD) FDA Maximum (Recommended) Daily Dose Database
Settings: TherapeuticCategory: thyroid depressant; hits give low values
REPORTED PROPERTY: maximum recommended daily dose (mmol/kg-bw/day)

# SAMPLE SMILES, NUMERIC RESULT
measured = [
    ("O=c1cc[nH]c(=S)[nH]1", 0.026),
]

###

System: human maximum recommended daily dose, FDA database
Test: DSSTox (FDAMDD) FDA Maximum (Recommended) Daily Dose Database
Conditions: TherapeuticCategory: diagnostic aid; hits give low values
REPORTED PROPERTY: maximum recommended daily dose (mmol/kg-bw/day)

# COMPOUND, RESULT
data = [
    ("CC(=O)Nc1c(I)c(C(=O)N[C@H]2C(O)O[C@H](CO)[C@@H](O)[C@@H]2O)c(I)c(N(C)C(C)=O)c1I (some centres not stated)", 0.132),
    ("CCOC(=O)CCCCCCCCC(C)c1ccc(I)cc1 (configuration not stated)", 0.3),
    ("CN(C)C=Nc1c(I)cc(I)c(CCC(=O)O)c1I", 0.167),
    ("CNC[C@H](O)[C@@H](O)[C@H](O)[C@H](O)CO", 0.512),
    ("CCOC(=O)CCCCCCCCC(C)c1ccccc1I (configuration not stated)", 0.3),
    ("CC(=O)Nc1c(I)c(C(=O)O)c(I)c(N(C)C(C)=O)c1I", 0.159),
    ("CNC(=O)c1c(I)c(NC(C)=O)c(I)c(C(=O)O)c1I", 0.163),
]
